tested on: NCI-H23 lung; experiment: NCI-60 one-dose screen, 48 h (100 = growth as untreated, 0 = no growth, -100 = all killed); conditions: 10 µM
About 83,000 compounds went through this panel and 20% of them were active in at least one assay; those are over-represented in the sample as a whole.
experimental.readout: growth (%)

molecule="CCC(C)[C@H](NC(C)=O)C(=O)N[C@@H](CCCNC(=N)N)C(=O)N[C@@H](CCCCN)C(=O)N[C@@H](CC1CCC(O)CC1)C(=O)NC(C(=O)N[C@@H](CCSC)C(=O)N[C@@H](CCCNC(=N)N)C(=O)N[C@@]1(C)CCC/C=C\\CCC[C@@](C)(C(=O)NC(C(=O)N[C@@H](CCC(=O)O)C(=O)N[C@@H](CC(C)C)C(=O)N[C@H](C(=O)N[C@@H](CCC(=O)O)C(N)=O)C(C)C)[C@@H](C)O)NC(=O)[C@H](CCC(N)=O)NC(=O)[C@H](CC(C)C)NC(=O)[C@H](CC(C)C)NC1=O)[C@@H](C)O (stereo partly specified)" test_value=106

###

tested on: RXF 393 renal; assay: NCI-60 one-dose screen, 48 h (100 = growth as untreated, 0 = no growth, -100 = all killed); conditions: 10 µM
About 83,000 compounds went through this panel and 20% of them were active in at least one assay; those are over-represented in the sample as a whole.
One threshold, 70%, splits the recorded growth values: lower ones are 1, equal or higher ones are -1.

molecule=CCn1c(SC/C(=N/O)c2ccccc2)nnc1-c1ccccc1 answer_label=-1
molecule=O=C1CSC(=S)N1/N=C/c1ccc(Cl)s1 answer_label=-1
molecule=CCOC(=O)c1cc(C(=O)c2cc(OC)c(OC)c(OC)c2)n2ncc3ccccc3c12 answer_label=-1
molecule=COc1ccc2nc(Cl)c(Cn3nnc(Cc4ccccc4)n3)cc2c1 answer_label=1
molecule="COc1ccc(NC(=O)C2CC3C=CC2C3)c([N+](=O)[O-])c1 (stereo not given)" answer_label=-1
molecule=COc1ccc(/C(C#N)=C/c2ccccc2OC)cc1 answer_label=1
molecule=CC(C)(C)OC(=O)N1CCc2c(sc3ncnc(N/N=C/c4ccc(Br)cc4)c23)C1 answer_label=1
molecule=CCN(CC)CCCOc1cccc2c1C(=O)c1cccc(OCCCN(CC)CC)c1C2=O answer_label=1
molecule=O=S(=O)(NCCCNc1nccc(-c2cn(-c3ccccc3)nc2-c2ccc(Cl)c(O)c2)n1)c1ccccc1 answer_label=-1
molecule=Clc1ccc(C2=NN=C3C(Cc4ccccc4)=Nc4ccccc4N3C2)cc1 answer_label=-1

###

tested on: U251 CNS; assay: NCI-60 one-dose screen, 48 h; conditions: 10 µM
The panel holds about 83,000 compounds, 20% with a hit somewhere; the sample as a whole holds those more often. Calls of active or inactive are those of the source. Rule for the calls: active = growth percent below 10; inactive = the rest.
Classes used: active, inactive

compound=C=CCn1c(SCC(=O)Nc2ccc(C(=O)/C=C/c3ccc(Cl)cc3)cc2)nnc1-c1cc(-c2ccccc2)nc2ccccc12 answer_label=inactive
compound=N#Cc1c(N)nc(-c2cc(F)cc(C(F)(F)F)c2)nc1-c1ccccc1F answer_label=inactive
compound=COc1ccc(-c2onc(N)c2-c2cc(OC)c3c(c2)OCO3)cc1 answer_label=inactive
compound=CCCCC/C=C/C/C=C/CCCCCCCC1=NC(C)(C)CN1C(C)C answer_label=active
compound=CCN(CC)CCNc1ccc(C)c2sc3cc(Cl)ccc3c(=O)c12 answer_label=inactive
compound=c1cncc(-c2csc(-c3c[nH]c4ccccc34)n2)c1 answer_label=inactive
compound=CC(C)(C)OC(=O)N1CCc2c(sc3ncnc(N/N=C/c4ccccc4Br)c23)C1 answer_label=inactive
compound=NC(=O)c1cccc(-n2ccc3cc(NC(=O)Nc4ccc(Cl)c(C(F)(F)F)c4)ccc32)n1 answer_label=inactive
compound="C=CCN(CC=C)C(=O)[C@H](CC)[C@@H]1CC[C@@H](C)[C@@H]([C@H](C)[C@@H](O)[C@@H](C)C(=O)[C@H](CC)C2O[C@]3(C=CC(=O)[C@]4(CC[C@@](C)([C@H]5CC[C@](O)(CC)[C@H](C)O5)O4)O3)[C@H](C)C[C@@H]2C)O1 (stereo partly drawn)" answer_label=inactive
compound=COC(=O)CC[C@@H](C)[C@H]1CC[C@H]2[C@@H]3CC[C@@H]4C[C@H](O)CC[C@]4(C)[C@H]3C[C@H](O)[C@]12C answer_label=inactive
compound="CC(CN(C)C)Oc1ccccc1NC1=C(Cl)C(=O)C(Nc2ccccc2OC(C)CN(C)C)=C(Cl)C1=O (stereo not drawn)" answer_label=active
compound=Oc1ccc(-c2[nH]c3ccccc3c2-c2nc3ccccc3o2)cc1 answer_label=inactive
compound=CN1CCN(CCC(=O)Nc2cccc(-n3cc(-c4ccncc4)c(-c4ccc(Cl)c(O)c4)n3)c2)CC1 answer_label=inactive
compound=Nc1cc(-c2ccc(Cl)cc2)nn1-c1nc2ccccc2nc1Cc1ccccc1 answer_label=inactive
compound=COc1cc(C(=O)N2CCN(c3cc4c(cc3F)c(=O)c(C(=O)NO)cn4C3CC3)CC2)cc(OC)c1OC answer_label=inactive
compound=COc1cc(-c2nn(-c3cccc(NC(=O)NCCNS(=O)(=O)c4ccc(Cl)cc4)c3)cc2-c2ccncc2)ccc1Cl answer_label=active
compound=CCOC(=O)c1cc(C(=O)c2cc(OC)c(OC)c(OC)c2)n2ncc3ccccc3c12 answer_label=inactive
compound=CCOC(=O)CSc1nc(-c2cc(OC)ccc2OC)cc(-c2ccc(OC)cc2)c1C#N answer_label=inactive

Each recorded value in this set is attributed to PubChem BioAssay (NCI).
